- target_or_test_system: chemokine receptors on THP-1 cells
- method_description: binding to THP-1 cells; printed as association constant in concentration units
pKd: −log10 of the molar value.
measured_attribute: pKd

EICADPKQKWVQ [Peptide 3(1-12)[MCP-1]] | 5.00
